biological target: Human CD16A 158V (human); experiment: BLI
Sequence (chain, as listed by the source): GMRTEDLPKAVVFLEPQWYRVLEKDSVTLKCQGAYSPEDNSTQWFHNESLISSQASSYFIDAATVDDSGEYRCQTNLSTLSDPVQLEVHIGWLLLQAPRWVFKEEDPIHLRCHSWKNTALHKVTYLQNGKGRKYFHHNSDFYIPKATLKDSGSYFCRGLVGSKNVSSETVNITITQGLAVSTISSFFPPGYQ
assay_metric: Kd (nM)
Numeric only. Scale: nM

Answered examples (2):
Query block: Record request: Kd value, item CD16-VH-RM75 (antibody) EVQLVESGGGLVQPGGSLRLSCAASGFTFSNYGMSWVRQAPGKGLEWIGSIYYSGDTNYNPSLKSLVTISRDNSKNTLYLQMNSLRAEDTATYYCARESIDYWGQGTLVTVSS
Result block: 3.51

Query block: And what about the binder BM156-01 (antibody) EVQLVESGGGLVQPGGSLRLSCAASGFTFSNYGMSWVRQAPGKGLEWIGSIYYSGSTNYNPSLKSLVTISRDNSKNTLYLQMNSLRAEDTATYYCARESIDYWGQGTLVTVSS ?
Result block: 20.6

Further cases:
Query block: Need Kd, item CD16-VH-RM72 (antibody) EVQLVESGGGLVQPGGSLRLSCAASGFTFSNYGMSWVRQAPGKGLEWIGSIYYSGQTNYNPSLKSLVTISRDNSKNTLYLQMNSLRAEDTATYYCARESIDYWGQGTLVTVSS
Result block: 4.38

Data origin, for the record: patent US20260327314
